# System: Trypanosoma brucei brucei
# assay-summary: Antitrypanosomal activity against bloodstream form of Trypanosoma brucei brucei overexpressing type-1 nitroreductase
# Type: functional, organism-based

smi	target	endpoint-unit	IC50
N#Cc1ccc(-c2ccc(NC(=O)Cn3cnc([N+](=O)[O-])n3)cc2)cc1	Trypanosoma brucei brucei	nM	360

====

# System: Trypanosoma brucei rhodesiense
# assay-summary: Antitrypanosomal activity against trypomastigote stage of Trypanosoma brucei rhodesiense STIB 900 assessed as parasite growth inhibition after 72 hrs by Alamar Blue assay
# Type: functional, organism-based
# measurement-context: STIB 900, 72 h

molecule	IC50 / µM
O=C(Cn1cnc([N+](=O)[O-])n1)Nc1ccc(-c2ccc(Cl)cc2)cc1	0.901
O=C(Cn1cnc([N+](=O)[O-])n1)Nc1nnc(-c2ccc(Cl)cc2)s1	73.9
Fc1ccc(C2(Cn3cncn3)Cn3ccnc3O2)c(F)c1 (centres undefined)	221
O=C(Cn1ccnc1[N+](=O)[O-])Nc1nc(-c2ccc(F)c(F)c2)cs1	10
O=C(Cn1cnc([N+](=O)[O-])n1)Nc1ccc(N2CCCCC2)cc1	17
O=[N+]([O-])c1ncn(CC(O)(Cn2cncn2)c2ccc(-c3ccccc3)cc2)n1 (centres undefined)	2.88
O=C(Cn1cncn1)c1ccc(-c2ccccc2)cc1	51.7
CC(O)(Cn1cncn1)c1ccc(-n2ccnc2)cc1 (centres undefined)	153
Cc1ccc(S(=O)(=O)NC(Cc2ccccc2)Cn2cnc([N+](=O)[O-])n2)cc1 (centres undefined)	11.6

Numbers sourced from ChEMBL document CHEMBL3407483.
